Target: T1, biotinylated human CD203c (bio-huCD203c, Acro, Cat. nr. H52H4) (human, UniProt O14638 49-875, limits assumed, biotinylated (site not stated))
T1 construct: Captured on a Biotin CAPture chip for SPR
T1 sequence (looked up): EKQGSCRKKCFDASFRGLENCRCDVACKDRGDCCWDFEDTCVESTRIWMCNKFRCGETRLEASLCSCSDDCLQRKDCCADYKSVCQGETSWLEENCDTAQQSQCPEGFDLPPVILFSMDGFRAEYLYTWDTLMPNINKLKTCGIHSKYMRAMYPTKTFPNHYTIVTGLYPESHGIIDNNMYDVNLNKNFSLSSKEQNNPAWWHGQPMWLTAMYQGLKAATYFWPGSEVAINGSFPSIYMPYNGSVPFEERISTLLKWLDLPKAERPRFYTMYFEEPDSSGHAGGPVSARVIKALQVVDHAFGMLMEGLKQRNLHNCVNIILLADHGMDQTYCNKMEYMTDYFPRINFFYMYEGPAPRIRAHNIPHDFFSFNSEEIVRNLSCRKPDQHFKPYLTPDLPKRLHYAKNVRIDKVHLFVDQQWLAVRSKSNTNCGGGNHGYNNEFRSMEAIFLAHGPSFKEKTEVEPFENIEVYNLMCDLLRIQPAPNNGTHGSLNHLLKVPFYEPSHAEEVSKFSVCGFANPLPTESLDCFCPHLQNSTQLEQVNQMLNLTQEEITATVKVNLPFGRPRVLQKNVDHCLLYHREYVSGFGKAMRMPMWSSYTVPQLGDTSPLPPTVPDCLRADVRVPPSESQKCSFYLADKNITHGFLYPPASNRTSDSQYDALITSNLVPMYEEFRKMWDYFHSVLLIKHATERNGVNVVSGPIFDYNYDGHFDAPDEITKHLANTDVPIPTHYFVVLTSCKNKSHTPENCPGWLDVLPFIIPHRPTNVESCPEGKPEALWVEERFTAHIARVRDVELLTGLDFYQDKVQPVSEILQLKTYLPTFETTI
Test: SPR, single-cycle protocol, Bio-huCD203c; table gives Rmax, Chi2 and KD only
Quantity Kind: Kd (nM)
Answers are plain numbers, in nM.

Example cases with answers are listed next.
| Binder | Kd (nM) |
| --- | --- |
| FJ2156_MH1_A x F6_12B huIgG1 KIH (bispecific antibody, V domains shown, also called MH1_A/F6.12_B) VH 1: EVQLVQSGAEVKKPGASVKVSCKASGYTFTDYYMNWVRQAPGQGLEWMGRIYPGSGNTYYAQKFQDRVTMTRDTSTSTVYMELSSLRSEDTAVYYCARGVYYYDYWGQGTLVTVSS VH 2: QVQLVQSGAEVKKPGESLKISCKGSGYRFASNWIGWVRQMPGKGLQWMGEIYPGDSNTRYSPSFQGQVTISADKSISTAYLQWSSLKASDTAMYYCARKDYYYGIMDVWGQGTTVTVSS VL: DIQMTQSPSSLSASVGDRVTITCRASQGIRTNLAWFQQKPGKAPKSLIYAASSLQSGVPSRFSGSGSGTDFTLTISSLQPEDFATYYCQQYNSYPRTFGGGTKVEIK | 98.5 |
| MH1_C/F6.12_D bispecific (pI-engineered) (bispecific antibody, V domains shown, Knob-in-hole IgG1null bispecific with human Ckappa) VH 1: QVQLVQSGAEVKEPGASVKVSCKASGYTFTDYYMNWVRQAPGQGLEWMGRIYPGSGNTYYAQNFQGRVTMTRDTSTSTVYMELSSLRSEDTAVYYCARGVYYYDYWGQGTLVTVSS VH 2: QVQLVQSGAEVKKPGESLKISCKGSGYRFASNWIGWVRQMPGKGLEWMGEIYPGDSNTRYSPSFQGQVTISADKSISTAYLQWSRLKASDTAMYYCARKDYYYGIMDVWGQGTTVTVSS VL: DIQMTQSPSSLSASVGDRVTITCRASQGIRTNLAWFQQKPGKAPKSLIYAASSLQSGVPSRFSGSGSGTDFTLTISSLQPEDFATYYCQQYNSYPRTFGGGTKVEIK | 79.2 |

Next:
What value of measured Kd is listed for FJ2156_MH1_A x F6_12C huIgG1 KIH (bispecific antibody, V domains shown, also called MH1_A/F6.12_C) VH 1: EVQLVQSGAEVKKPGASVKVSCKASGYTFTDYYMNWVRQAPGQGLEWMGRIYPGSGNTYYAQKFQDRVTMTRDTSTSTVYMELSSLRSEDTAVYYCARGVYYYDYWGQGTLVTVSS VH 2: QVQLVQSGAEVKKPGESLKISCKGSGYRFASNWIGWVRQMPGKGLEWMGEIYPGDSNTRYRPSFQGQVTISADKSISTAYLQWSSLKASDTAMYYCARKDYYYGIMDVWGQGTTVTVSS VL: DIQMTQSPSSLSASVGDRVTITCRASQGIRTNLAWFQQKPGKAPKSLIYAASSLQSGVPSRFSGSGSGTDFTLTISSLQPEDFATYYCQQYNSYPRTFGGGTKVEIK ? 84.8
